Cited source for all entries: patent US8778966B2

Let's look at some molecules and their measured IC50.
Molecular target: TANK-2 enzyme (Homo sapiens)
Construct: made in house
Sequence (Q9H2K2 whole entry): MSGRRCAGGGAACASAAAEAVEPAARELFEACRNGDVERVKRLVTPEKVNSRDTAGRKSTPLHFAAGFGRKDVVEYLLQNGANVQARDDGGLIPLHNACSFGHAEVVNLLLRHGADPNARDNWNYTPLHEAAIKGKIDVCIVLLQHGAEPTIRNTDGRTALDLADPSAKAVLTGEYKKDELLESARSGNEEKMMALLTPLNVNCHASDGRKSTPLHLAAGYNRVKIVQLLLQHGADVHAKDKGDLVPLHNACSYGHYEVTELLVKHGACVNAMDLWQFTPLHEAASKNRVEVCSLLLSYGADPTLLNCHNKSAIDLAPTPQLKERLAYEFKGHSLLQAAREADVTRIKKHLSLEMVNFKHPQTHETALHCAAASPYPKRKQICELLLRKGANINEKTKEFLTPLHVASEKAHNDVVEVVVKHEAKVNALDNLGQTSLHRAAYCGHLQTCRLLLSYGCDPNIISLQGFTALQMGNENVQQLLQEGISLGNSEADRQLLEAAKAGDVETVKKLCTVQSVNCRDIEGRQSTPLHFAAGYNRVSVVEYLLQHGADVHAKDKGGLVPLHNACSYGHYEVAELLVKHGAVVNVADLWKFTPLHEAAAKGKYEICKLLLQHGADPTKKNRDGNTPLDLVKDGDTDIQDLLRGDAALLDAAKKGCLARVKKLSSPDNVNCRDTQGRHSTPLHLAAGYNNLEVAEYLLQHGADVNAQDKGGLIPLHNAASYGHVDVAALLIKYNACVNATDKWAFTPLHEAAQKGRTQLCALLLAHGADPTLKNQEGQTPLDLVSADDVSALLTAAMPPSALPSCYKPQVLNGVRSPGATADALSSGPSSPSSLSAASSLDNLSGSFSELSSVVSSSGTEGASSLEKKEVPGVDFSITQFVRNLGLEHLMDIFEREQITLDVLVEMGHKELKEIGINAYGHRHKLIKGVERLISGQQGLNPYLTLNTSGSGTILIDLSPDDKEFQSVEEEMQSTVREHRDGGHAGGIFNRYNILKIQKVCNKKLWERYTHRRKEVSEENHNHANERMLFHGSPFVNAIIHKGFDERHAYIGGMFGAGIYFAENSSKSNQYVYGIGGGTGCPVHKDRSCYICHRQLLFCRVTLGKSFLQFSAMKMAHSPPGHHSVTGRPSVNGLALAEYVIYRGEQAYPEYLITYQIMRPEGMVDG
Assay: In vitro Scintillation Proximity Assay (SPA) for TANK-2 inhibitory activity
Assay type: biochemical
Conditions: read-out: in vitro SPA assay TANK-2 pIC50 (converted)
# value in nM; strip the unit string

> print(dat)
                                   molecule  assay.metric  value.reported
1  CCc1cc2ccc([C@@](C)(C#N)CCOc3ccc(C#N)cc3)cc2[nH]c1=O (single isomer, unassigned) [Compound 273]          IC50             100

Request: Fill blank: measured IC50 of the molecule Cc1cc2ccc(C(C)(C#N)Cc3cccc(Oc4ncccn4)c3)cc2[nH]c1=O (stereo not drawn) [Compound 191] is ____.
Result: 1580

Request: Fill blank: measured IC50 of the molecule CCc1cc2ccc([C@](C)(C#N)Cc3nc(OC)cc(OC)n3)cc2[nH]c1=O (single isomer, unassigned) [Compound 52] is ____.
Result: 200

Request: Fill blank: measured IC50 of the molecule C#Cc1cccc(C[C@@](C)(C#N)c2ccc3cc(CC)c(=O)[nH]c3c2)c1 [Compound 3] is ____.
Result: 501

Request: Fill blank: measured IC50 of the molecule CCc1cc2ccc(C(C)(C#N)Cc3cccc(OCC4CC4)c3)cc2[nH]c1=O (stereo not drawn) [Compound 67] is ____.
Result: 126

Request: Fill blank: measured IC50 of the molecule CCc1cc2ccc(C(C)(C#N)CCOc3ccnc(SC)n3)cc2[nH]c1=O (stereo not drawn) [Compound 348] is ____.
Result: 200
